cell viability values, listed per item
System: Caco-2
Test: cell viability relative to DMSO; higher = less toxic
Settings: 72 h; 100 nM

- compound: "Cc1cnc(-c2cc(N3CCN(C(=O)CCS(C)(=O)=O)CC3)ncc2Cl)c(C)c1"
  cell viability (%): 102
- compound: "Cc1ccc2c(Cl)cc(Cl)c(O)c2n1 [chlorquinaldol]"
  cell viability (%): 96.7
- compound: "O=c1[nH]nc2c3c(cccc13)N=C(CN1Cc3ccccc3C1)N2 [E7449]"
  cell viability (%): 102
- compound: "CCc1cc(-c2[nH]nc(C)c2-c2ccc3c(c2)OCCO3)c(O)cc1O"
  cell viability (%): 98
- compound: "Cn1c(=O)c2c(ncn2CC(O)CO)n(C)c1=O (centres undefined) [dyphylline]"
  cell viability (%): 104
- compound: "CC1(C)S[C@@H]2[C@H](NC(=O)[C@H](N)c3ccc(O)cc3)C(=O)N2[C@H]1C(=O)O [amoxicillin]"
  cell viability (%): 85.4
- compound: "CN1C[C@@H](NS(=O)(=O)N(C)C)C[C@@H]2c3cccc4c3c(cn4C)C[C@H]21 [mesulergine]"
  cell viability (%): 105
- compound: "O=C(NCCNCC(O)COc1ccc(O)cc1)N1CCOCC1 (centres undefined) [xamoterol]"
  cell viability (%): 99.9
- compound: "CC(CN(C)C)CN1c2ccccc2CCc2ccccc21 (centres undefined) [trimipramine]"
  cell viability (%): 98
